# System: perceived sweetness intensity
# protocol: Strawberry consumer panel; revised partial least squares regression against sweetness intensity (Table 6)
# Assay type: in vivo, human
# details: strawberry volatile concentration regressed against perceived sweetness intensity independent of sucrose; partial least squares regression
# Description: All consumer panels were approved by the University of Florida Institutional Review Board. […] Ages of panelist ranged from 18 to 71, with a median age of 24. Panelists self-classified themselves as 98 White or Caucasian, 11 Black or African-American, 1 Native American, Alaska Native or Aleutian, 41 Asian/Pacific Islander, and 15 Other. […] Fresh, fully-ripe strawberry fruit was removed from overnight 4° C. dark storage and allowed to warm to room temperature prior to sensory analysis. […]
experimental endpoint: t Ratio (Sucrose)
Form field (numeric): enter value without unit.

Examples with their reported t Ratio (Sucrose) follow.
[
  {
    "compound": "C=C(C)C1CC=C(COC(C)=O)CC1 (centres unmarked) [Perillyl acetate]",
    "target of assay": "perceived sweetness intensity",
    "t Ratio (Sucrose)": 0.927
  },
  {
    "compound": "C=C[C@]1(C)CC[C@H](C(C)(C)O)O1 [(Z)-Linalool oxide]",
    "target of assay": "perceived sweetness intensity",
    "t Ratio (Sucrose)": 1.954
  },
  {
    "compound": "CCCCCCC1CCC(=O)O1 (centres unmarked) [γ-Decalactone]",
    "target of assay": "perceived sweetness intensity",
    "t Ratio (Sucrose)": 1.650
  },
  {
    "compound": "CC1(C)[C@H]2CC=C(C=O)[C@@H]1C2 [Myrtenal]",
    "target of assay": "perceived sweetness intensity",
    "t Ratio (Sucrose)": "−1.323"
  }
]

The compound listed as CCCCCC=CC=O [2-Octenal] shows t Ratio (Sucrose) equal to 2.052

====

# Test system: perceived sweetness
# protocol: Tomato taste panel; revised partial least squares regression against sweetness independent of fructose or glucose (Table 4)
# Type: in vivo, human
# details: sweetness independent of fructose
Property: FRUCTOSE t RATIO; scope: individual compounds
Would you mind answering with just the numeric figure?

[
  {
    "molecular string": "C/C=C/C(=O)C1=C(C)C=CCC1(C)C",
    "test result": 0.138
  },
  {
    "molecular string": "CC(=O)/C=C/C1=C(C)CCCC1(C)C",
    "test result": 2.12
  },
  {
    "molecular string": "N[C@@H](CCC(=O)O)C(=O)O",
    "test result": "−1.746"
  }
]

Let us examine a further case.
CC1=C(C=O)C(C)(C)CCC1 on perceived sweetness gives FRUCTOSE t RATIO = 1.905

====

# Test system: perceived sweetness intensity
# protocol: Strawberry consumer panel; initial multiple regression of volatiles against perceived sweetness intensity independent of glucose, fructose or sucrose (Table 5)
# Format: in vivo, human
# details: standard least squares, sweetness intensity independent of glucose
experimental endpoint: GLUCOSE t RATIO
No unit in the answer, only the number.

Reading of GLUCOSE t RATIO for C=CC(O)CC (stereo not shown) with perceived sweetness intensity: 1.628

Bench note, perceived sweetness intensity: entry CCCCCCCCOC(C)=O , its GLUCOSE t RATIO = 0.284

For COC1=C(C)OC(C)C1=O (stereo not shown) on perceived sweetness intensity, measured GLUCOSE t RATIO was 2.185

# GLUCOSE t RATIO measured on perceived sweetness intensity for item CCC(=O)CC = 1.576

The compound CCCCCCC1CCC(=O)O1 (stereo not shown) , when measured on perceived sweetness intensity, yielded GLUCOSE t RATIO of 0.879

Assay perceived sweetness intensity, sample CCCCC(=O)C(C)=O , GLUCOSE t RATIO read: 0.002

Recorded GLUCOSE t RATIO for CC=C(C)C(=O)OCC on perceived sweetness intensity was −0.675

Here CCCCC/C=C/C=O was tested on perceived sweetness intensity, and its GLUCOSE t RATIO came to 1.509

Tested on perceived sweetness intensity, the item CCCCOC(=O)CC(C)C showed GLUCOSE t RATIO equal to 1.954

// returns GLUCOSE t RATIO for CCCCCCCCOC(=O)CCC with perceived sweetness intensity; value = 0.814

Item: CCC/C=C/COC(C)=O | System: perceived sweetness intensity | GLUCOSE t RATIO: −0.331

For CC(=O)OCc1ccccc1 on perceived sweetness intensity, measured GLUCOSE t RATIO was −0.513

// returns GLUCOSE t RATIO for CCCCCCCCOC(=O)CCCCC with perceived sweetness intensity; value = 0.254

# lookup: CCCCCCCCCC(=O)OCC on perceived sweetness intensity, GLUCOSE t RATIO = 0.055

The measured GLUCOSE t RATIO that CCCCOC(=O)CCC showed for perceived sweetness intensity is 1.961

perceived sweetness intensity assay, compound Cc1cc(C(C)(C)C)c(O)c(C(C)(C)C)c1 , recorded GLUCOSE t RATIO = −1.17

For the compound CCCCCCCCC=O , the measured GLUCOSE t RATIO on perceived sweetness intensity was 3.402

So the reported GLUCOSE t RATIO for CCCCC(CC)COC(C)=O (stereo not shown) , on perceived sweetness intensity, turned out to be 0.21

Reported perceived sweetness intensity GLUCOSE t RATIO for item CCCCCCCCCCOC(=O)CCC was 1.579

# CCCCC=O with perceived sweetness intensity: GLUCOSE t RATIO is −0.568

Noted GLUCOSE t RATIO for C/C=C/C(=O)OC , tested on perceived sweetness intensity: 0.54

GET /values?item= CCCC(=O)OC &system= perceived sweetness intensity returns GLUCOSE t RATIO: 1.452

====

# Tested on: perceived sweetness intensity
# protocol: Strawberry consumer panel; initial multiple regression of volatiles against perceived sweetness intensity independent of glucose, fructose or sucrose (Table 5)
# Assay type: in vivo, human
# details: standard least squares, sweetness intensity independent of glucose
Doc: threshold 1 (exclusive). Items with GLUCOSE t RATIO beneath it return YES; others return NO.

Examples from the recorded data:
[
  {
    "molecule": "CC/C=C/C=O [1576-87-0]",
    "discrete label": "NO"
  },
  {
    "molecule": "CCCCCO [71-41-0]",
    "discrete label": "YES"
  },
  {
    "molecule": "CCCCCOC(C)=O [628-63-7]",
    "discrete label": "YES"
  },
  {
    "molecule": "CC(=O)OCCC(C)C [123-92-2]",
    "discrete label": "YES"
  }
]

Is it true that GLUCOSE t RATIO reported for CCC(O)C(=O)OC (stereo not drawn) [29674-47-3] is less than 1?
NO

In plain terms, does CCCCCCC/C=C/C=O [3913-81-3] come in under 1 for GLUCOSE t RATIO?
NO

Consider CC/C=C\C=O [1576-86-9] . Does its GLUCOSE t RATIO lie strictly below 1?
NO

Hi there! Is GLUCOSE t RATIO for CCCCC(C)=O [591-78-6] below 1, do you know?
NO

Confirm or reject: GLUCOSE t RATIO of CCCCC/C=C\C=O [20664-46-4] lies strictly below 1
YES

Does the reported GLUCOSE t RATIO of the following molecule sit strictly below 1? CCCCC(=O)OCC [539-82-2]
YES

Hi there! Is GLUCOSE t RATIO for CCOC(=O)C(C)CC (stereo not drawn) [7452-79-1] below 1, do you know?
NO

Item CSC(C)=O [1534-08-3] : GLUCOSE t RATIO beneath 1, strictly?
YES

Identify whether the molecule CCCC(=O)OCC [105-54-4] records GLUCOSE t RATIO below 1.
NO

Is GLUCOSE t RATIO strictly under 1 for the entry CCCOC(C)=O [109-60-4] ?
YES

For C=C[C@]1(C)CC[C@H](C(C)(C)O)O1 [5989-33-3] , is the recorded GLUCOSE t RATIO below the cut-off of 1?
NO

Please indicate whether the reported GLUCOSE t RATIO of CCCOC(=O)CCC [105-66-8] is strictly below 1.
YES

Take the molecule CCCC(=O)SC [2432-51-1] and say whether its GLUCOSE t RATIO is less than 1.
YES

Strictly below 1 in GLUCOSE t RATIO? CCCCCC(CC)CC [5881-17-4]
NO

Could you please tell me whether GLUCOSE t RATIO recorded for COC(=O)c1ccccc1N [134-20-3] is less than 1?
YES

Problem: For the molecule CCCCCCCCOC(=O)CC(C)C [7786-58-5] , is GLUCOSE t RATIO under 1?
YES

Please check: GLUCOSE t RATIO for CC1(C)C2CC=C(C=O)C1C2 (stereo not drawn) [564-94-3] , strictly under 1 or not?
NO

API: query returns whether the molecule falls strictly under 1 in GLUCOSE t RATIO. Query: CCCCCC(=O)OCC [123-66-0]
YES

# strict comparison: is reported GLUCOSE t RATIO < 1? input = CCC(C)COC(C)=O (stereo not drawn) [624-41-9]
YES

API: query returns whether the molecule falls strictly under 1 in GLUCOSE t RATIO. Query: CCCC(=O)CC [589-38-8]
YES

Quick check: does CCCCCCCC=O [124-13-0] have GLUCOSE t RATIO under 1?
YES

Report whether reported GLUCOSE t RATIO is lower than 1 (strictly) for CCC/C=C/CO [928-95-0]
YES

Here's an entry: C=C(C)C1CC=C(COC(C)=O)CC1 (stereo not drawn) [15111-96-3] . Is its GLUCOSE t RATIO below 1?
YES

Threshold test, GLUCOSE t RATIO < 1: CCCCCCCCCOC(=O)C(C)C [10522-34-6]
YES

Hello, is GLUCOSE t RATIO of the following molecule strictly smaller than 1? CCOC(=O)CC [105-37-3]
YES

For CCCCCCC=O [111-71-7] , is the recorded GLUCOSE t RATIO below the cut-off of 1?
NO
